// shrunken log2 fold change lookup, one value per entry
Test system: Escherichia coli TOP10;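 also: peptides expressed intracellularly from a pBAD plasmid library in pooled LB shake-flask culture, induced with 0.3% L-arabinose, DNA abundance read by NGS, three biological replicates, DESeq2 with apeglm shrinkage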
Assay: shrunken log2 fold change of peptide-encoding DNA abundance (4.5 h post-induction vs induction); higher = less antimicrobial activity (less host growth inhibition)
Details: time post-induction: 4.5 h; library: site-saturation at positions 5, 18, 19, 20
readout_label: shrunken log2 fold change

{"polymer_sequence": "RRIRMRPPRLPRPRPRPAQTPRP", "readout_label": "shrunken log2 fold change", "result": 0.00383}
{"polymer_sequence": "RRIRGRPPRLPRPRPRPNMMPRP", "readout_label": "shrunken log2 fold change", "result": 0.0511}
{"polymer_sequence": "RRIRQRPPRLPRPRPRPQHSPRP", "readout_label": "shrunken log2 fold change", "result": -0.062}
{"polymer_sequence": "RRIRQRPPRLPRPRPRPNKHPRP", "readout_label": "shrunken log2 fold change", "result": -0.622}
{"polymer_sequence": "RRIRNRPPRLPRPRPRPIVRPRP", "readout_label": "shrunken log2 fold change", "result": 0.0133}
{"polymer_sequence": "RRIRPRPPRLPRPRPRPFEHPRP", "readout_label": "shrunken log2 fold change", "result": 0.0626}
{"polymer_sequence": "RRIRLRPPRLPRPRPRPNIIPRP", "readout_label": "shrunken log2 fold change", "result": -0.313}
{"polymer_sequence": "RRIRTRPPRLPRPRPRPLADPRP", "readout_label": "shrunken log2 fold change", "result": 0.125}
{"polymer_sequence": "RRIRSRPPRLPRPRPRPWVWPRP", "readout_label": "shrunken log2 fold change", "result": 0.39}
{"polymer_sequence": "RRIRSRPPRLPRPRPRPLIFPRP", "readout_label": "shrunken log2 fold change", "result": -0.403}
{"polymer_sequence": "RRIRDRPPRLPRPRPRPQPQPRP", "readout_label": "shrunken log2 fold change", "result": 0.517}
{"polymer_sequence": "RRIRDRPPRLPRPRPRPCQGPRP", "readout_label": "shrunken log2 fold change", "result": 0.028}
{"polymer_sequence": "RRIRERPPRLPRPRPRPSCWPRP", "readout_label": "shrunken log2 fold change", "result": 0.101}
{"polymer_sequence": "RRIRERPPRLPRPRPRPPEIPRP", "readout_label": "shrunken log2 fold change", "result": 0.115}
{"polymer_sequence": "RRIRWRPPRLPRPRPRPYTPPRP", "readout_label": "shrunken log2 fold change", "result": -0.72}
{"polymer_sequence": "RRIRCRPPRLPRPRPRPGESPRP", "readout_label": "shrunken log2 fold change", "result": 0.107}
{"polymer_sequence": "RRIRDRPPRLPRPRPRPTEHPRP", "readout_label": "shrunken log2 fold change", "result": -0.109}
{"polymer_sequence": "RRIRSRPPRLPRPRPRPFRTPRP", "readout_label": "shrunken log2 fold change", "result": -0.318}
{"polymer_sequence": "RRIRGRPPRLPRPRPRPGADPRP", "readout_label": "shrunken log2 fold change", "result": 1.48}
{"polymer_sequence": "RRIRHRPPRLPRPRPRPCVYPRP", "readout_label": "shrunken log2 fold change", "result": -0.62}
{"polymer_sequence": "RRIRLRPPRLPRPRPRPRVGPRP", "readout_label": "shrunken log2 fold change", "result": 0.295}
{"polymer_sequence": "RRIRCRPPRLPRPRPRPRMSPRP", "readout_label": "shrunken log2 fold change", "result": 0.041}
{"polymer_sequence": "RRIRDRPPRLPRPRPRPKDGPRP", "readout_label": "shrunken log2 fold change", "result": -0.0429}
{"polymer_sequence": "RRIRDRPPRLPRPRPRPPAHPRP", "readout_label": "shrunken log2 fold change", "result": 0.56}
{"polymer_sequence": "RRIRNRPPRLPRPRPRPLKCPRP", "readout_label": "shrunken log2 fold change", "result": 0.0144}
{"polymer_sequence": "RRIRWRPPRLPRPRPRPFNWPRP", "readout_label": "shrunken log2 fold change", "result": -0.0369}
{"polymer_sequence": "RRIRRRPPRLPRPRPRPPKDPRP", "readout_label": "shrunken log2 fold change", "result": 0.472}
{"polymer_sequence": "RRIRWRPPRLPRPRPRPKCQPRP", "readout_label": "shrunken log2 fold change", "result": 0.136}
{"polymer_sequence": "RRIRLRPPRLPRPRPRPIAHPRP", "readout_label": "shrunken log2 fold change", "result": -0.058}
{"polymer_sequence": "RRIRPRPPRLPRPRPRPKRLPRP", "readout_label": "shrunken log2 fold change", "result": 0.285}
{"polymer_sequence": "RRIRTRPPRLPRPRPRPPHCPRP", "readout_label": "shrunken log2 fold change", "result": 0.474}
{"polymer_sequence": "RRIRIRPPRLPRPRPRPKRNPRP", "readout_label": "shrunken log2 fold change", "result": -0.0625}
